Assay Name: in vitro
Protocol Conditions: human, microsomes
For each record, write down the corresponding half-life.
Only the number, expressed in min, is required.

Reported half-life of O=C(NCCO)c1ccc(-c2nnc(Cc3c[nH]c4ccccc34)nc2-c2ccccc2)cc1 [Compound 76] : 57.2

Reported half-life of CNC(=O)c1ccc(-c2nnc(Cc3c[nH]c4cnccc34)nc2-c2ccccc2)cc1 [Compound 68] : 39.9

Reported half-life of c1ccc(-c2nc(Cc3c[nH]c4ccccc34)nnc2-c2ccc(CN3CCOCC3)cc2)cc1 [Compound 42] : 12.8

Reported half-life of c1ccc(-c2nnc(Cc3c[nH]c4ccccc34)nc2-c2ccccc2)cc1 [Compound 4] : 21.8

* * *

For each record, write down the corresponding solubility kinetic.
Assay Name: physchem
Protocol Conditions: pH 7.4, Kinetic Solubility, R=2, PBS pH7.4 in 2% DMSO by plate reader, replicate 2

Reported solubility kinetic of c1ccc(-c2nc(Cc3c[nH]c4ccccc34)nnc2-c2ccc(CN3CCOCC3)cc2)cc1 : 16 µM

Reported solubility kinetic of CC(=O)N1CCN(c2ccc(OCC3COC(Cn4ccnc4)(c4ccc(Cl)cc4Cl)O3)cc2)CC1 (centres unmarked) [Ketoconazole, reference compound] : 129 µM

Reported solubility kinetic of CNC(=O)c1ccc(-c2nnc(Cc3c[nH]c4cnccc34)nc2-c2ccccc2)cc1 : 143 µM

Reported solubility kinetic of O=C(NCCO)c1ccc(-c2nnc(Cc3c[nH]c4ccccc34)nc2-c2ccccc2)cc1 : 62 µM

Reported solubility kinetic of c1ccc(-c2nc[nH]c2-c2ccccc2)cc1 [DPI, 4,5-Diphenylimidazole, reference compound] : 32 µM

* * *

Target Or Test System: human GPR84 (Homo sapiens)
Construct: expressed in transfected cells; host or cells: Flp-In T-REx 293 cells, doxycycline-induced; membrane preparations
Sequence (Q9NQS5+P04899 fused): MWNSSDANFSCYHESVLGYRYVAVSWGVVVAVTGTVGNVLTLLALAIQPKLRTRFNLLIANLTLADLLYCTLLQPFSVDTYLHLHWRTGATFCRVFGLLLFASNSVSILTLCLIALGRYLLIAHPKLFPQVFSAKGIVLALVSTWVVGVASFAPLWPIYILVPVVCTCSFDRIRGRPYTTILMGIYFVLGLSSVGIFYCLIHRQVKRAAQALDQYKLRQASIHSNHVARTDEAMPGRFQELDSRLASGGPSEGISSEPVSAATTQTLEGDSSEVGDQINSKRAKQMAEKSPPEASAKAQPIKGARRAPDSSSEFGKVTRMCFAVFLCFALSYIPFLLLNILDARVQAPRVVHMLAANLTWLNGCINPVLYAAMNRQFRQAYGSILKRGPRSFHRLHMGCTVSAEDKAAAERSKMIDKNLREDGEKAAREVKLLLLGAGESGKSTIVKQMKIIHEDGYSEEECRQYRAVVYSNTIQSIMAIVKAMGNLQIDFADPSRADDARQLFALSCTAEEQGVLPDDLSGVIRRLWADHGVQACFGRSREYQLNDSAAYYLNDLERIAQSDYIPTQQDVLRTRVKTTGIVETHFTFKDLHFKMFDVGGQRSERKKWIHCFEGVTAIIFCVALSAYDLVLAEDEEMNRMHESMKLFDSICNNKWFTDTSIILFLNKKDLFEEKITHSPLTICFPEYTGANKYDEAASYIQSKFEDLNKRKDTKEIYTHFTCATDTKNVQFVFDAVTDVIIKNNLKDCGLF
Assay Name: biochemical
Format: biochemical
Protocol Conditions: [35S]GTPγS assay; negative log of the IC50 in molar; mean ± SEM; read-out: GTPγS (pIC50) (converted)
Decision: IC50 beneath 6 µM gives criterion met; IC50 meeting or exceeding 6 µM gives criterion not met.

Enquiry: Record Cc1nnc(Cc2c[nH]c3ccccc23)nc1-c1ccccc1 : is its IC50 strictly below 6 µM?
Return: criterion not met

Enquiry: Record CN1CCN(C(=O)c2ccc(-c3nc(Cc4c[nH]c5ccccc45)nnc3-c3ccccc3)cc2)CC1=O : is its IC50 strictly below 6 µM?
Return: criterion met

Enquiry: Record Cc1nc(Cc2c[nH]c3ccccc23)nnc1-c1ccccc1 : is its IC50 strictly below 6 µM?
Return: criterion met

Enquiry: Record CN1CCN(C(=O)c2ccc(-c3nc(Cc4c[nH]c5ccccc45)nnc3-c3ccccc3)cc2)CC1 : is its IC50 strictly below 6 µM?
Return: criterion met

Enquiry: Record O=C(c1ccc(-c2nc(Cc3c[nH]c4ccccc34)nnc2-c2ccccc2)cc1)N1CCOCC1 : is its IC50 strictly below 6 µM?
Return: criterion met

Enquiry: Record O=C(NCCO)c1ccc(-c2nc(Cc3c[nH]c4ccccc34)nnc2-c2ccccc2)cc1 : is its IC50 strictly below 6 µM?
Return: criterion met

* * *

Assay Name: physchem
Protocol Conditions: pH 7.4, Kinetic Solubility, R=1, PBS pH7.4 in 2% DMSO by plate reader, replicate 1
For each record, write down the corresponding solubility kinetic.
Only the number, expressed in µM, is required.

Reported solubility kinetic of O=C(NCCO)c1ccc(-c2nnc(Cc3c[nH]c4ccccc34)nc2-c2ccccc2)cc1 [Compound 76] : 59

Reported solubility kinetic of c1ccc(-c2nc[nH]c2-c2ccccc2)cc1 [DPI, 4,5-Diphenylimidazole, reference compound] : 28

Reported solubility kinetic of CC(=O)N1CCN(c2ccc(OCC3COC(Cn4ccnc4)(c4ccc(Cl)cc4Cl)O3)cc2)CC1 (centres unmarked) [Ketoconazole, reference compound] : 128

Reported solubility kinetic of c1ccc(-c2nc(Cc3c[nH]c4ccccc34)nnc2-c2ccc(CN3CCOCC3)cc2)cc1 [Compound 42] : 12

Reported solubility kinetic of CNC(=O)c1ccc(-c2nnc(Cc3c[nH]c4cnccc34)nc2-c2ccccc2)cc1 [Compound 68] : 149
